System: ATP;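 note: ATP exposure 15 min at 22 °C before imaging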
Assay: switch fluorescence ratio, 500 uM ATP over buffer (Cy3 cluster intensity, sum of 5 cycles each) (fold (ratio)); higher = stronger signal-on switching upon ATP binding; sequences stand for … in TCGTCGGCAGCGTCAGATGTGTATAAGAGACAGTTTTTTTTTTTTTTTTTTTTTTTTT…TC
Conditions: aptamer strand: ATP DNA aptamer (quencher-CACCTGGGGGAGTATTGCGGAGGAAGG + anchor), 100 nM annealed; ATP concentration: 500 uM
# switch fluorescence ratio per entry
quantity: switch fluorescence ratio

INSERT INTO results (sequencecontent, testedon, quantity, experimentalresult) VALUES
  ('TCTTGGCGCC', 'ATP', 'switch fluorescence ratio', 0.976),
  ('CTTGGTAGTG', 'ATP', 'switch fluorescence ratio', 0.959),
  ('GGAAAGAGTT', 'ATP', 'switch fluorescence ratio', 1.07),
  ('GGGTCTGCGC', 'ATP', 'switch fluorescence ratio', 1.03),
  ('GGACGGTCGG', 'ATP', 'switch fluorescence ratio', 1.01),
  ('GGGGTTGTTG', 'ATP', 'switch fluorescence ratio', 0.988),
  ('GACTTTTTAG', 'ATP', 'switch fluorescence ratio', 0.98),
  ('GAGACGGTCT', 'ATP', 'switch fluorescence ratio', 1.05),
  ('GGATTTAAAA', 'ATP', 'switch fluorescence ratio', 1.05),
  ('TCGGCAATTT', 'ATP', 'switch fluorescence ratio', 1.4),
  ('TTGGACGGTA', 'ATP', 'switch fluorescence ratio', 1.06),
  ('AGGGTCATTC', 'ATP', 'switch fluorescence ratio', 0.975),
  ('TGCGGGAGTA', 'ATP', 'switch fluorescence ratio', 1),
  ('CGTTGCTTTG', 'ATP', 'switch fluorescence ratio', 0.987),
  ('CGTAGTAGTG', 'ATP', 'switch fluorescence ratio', 0.993),
  ('GGGGTTTTCT', 'ATP', 'switch fluorescence ratio', 1.01),
  ('AGGTTGGGC', 'ATP', 'switch fluorescence ratio', 1.04),
  ('CGTACGGGTT', 'ATP', 'switch fluorescence ratio', 0.996),
  ('AAATCCGCG', 'ATP', 'switch fluorescence ratio', 1.28),
  ('GGATGTTTTT', 'ATP', 'switch fluorescence ratio', 1.03),
  ('GAAATCATTA', 'ATP', 'switch fluorescence ratio', 1.02),
  ('AATGTGGATA', 'ATP', 'switch fluorescence ratio', 0.984),
  ('ATTTTAAGGG', 'ATP', 'switch fluorescence ratio', 1),
  ('AGGAGTTTAG', 'ATP', 'switch fluorescence ratio', 0.987),
  ('GCCGGGCCGG', 'ATP', 'switch fluorescence ratio', 0.967),
  ('GTGGTGCTTA', 'ATP', 'switch fluorescence ratio', 0.996),
  ('TTATAGTTTG', 'ATP', 'switch fluorescence ratio', 0.997),
  ('ACGGTGGACT', 'ATP', 'switch fluorescence ratio', 1),
  ('GGTACTGGAG', 'ATP', 'switch fluorescence ratio', 1.04),
  ('CACATGCTGT', 'ATP', 'switch fluorescence ratio', 0.995),
  ('ATTAGGAATG', 'ATP', 'switch fluorescence ratio', 1.01),
  ('CTAAAAGAGG', 'ATP', 'switch fluorescence ratio', 0.997),
  ('AGCTAGTCGC', 'ATP', 'switch fluorescence ratio', 1.01),
  ('TTTTAAAGAG', 'ATP', 'switch fluorescence ratio', 0.97),
  ('ACGCGGTCGG', 'ATP', 'switch fluorescence ratio', 1.08),
  ('GCCTCCCGGG', 'ATP', 'switch fluorescence ratio', 1.14),
  ('GTAAAAAGAG', 'ATP', 'switch fluorescence ratio', 1),
  ('CCTGCCGTTA', 'ATP', 'switch fluorescence ratio', 1.27),
  ('TCGGGGTATG', 'ATP', 'switch fluorescence ratio', 0.982),
  ('AGGGGCTCCG', 'ATP', 'switch fluorescence ratio', 1.02),
  ('CAGCATCCTT', 'ATP', 'switch fluorescence ratio', 1.02),
  ('GAATCATGTT', 'ATP', 'switch fluorescence ratio', 0.992),
  ('GTCCGAAGGC', 'ATP', 'switch fluorescence ratio', 0.988);

The measurements presented in this section are drawn from the supplement of paper PMC10126150.
